molecular target: glutathione-S-transferase (GST) tagged LXRbeta LBD (ligand binding domain) (Homo sapiens, UniProt P55055); construct: purchased Invitrogen pv4658.pps; experiment: LanthaScreen TR-FRET Liver X Receptor Coactivator Assay, co-activator recruitment to LXRbeta LBD; assay type: biochemical; settings: efficacy at max dose, in relation to reference dual agonist T0901317; read-out: LXR beta Activity @ max dose (%)
Sequence (P55055 222-460 limits assumed): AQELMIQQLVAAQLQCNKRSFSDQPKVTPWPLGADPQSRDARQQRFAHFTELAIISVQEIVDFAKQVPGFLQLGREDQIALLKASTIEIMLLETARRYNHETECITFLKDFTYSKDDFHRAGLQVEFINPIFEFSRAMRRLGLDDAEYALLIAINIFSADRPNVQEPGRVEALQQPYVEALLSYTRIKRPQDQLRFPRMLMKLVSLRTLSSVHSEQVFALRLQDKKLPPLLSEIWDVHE
assay-readout: Emax (%)

[[record]]
molecule_smiles = "CN(C)C(=O)c1ccc(N2CCC(CC3(C)CCN(C(=O)[C@](O)(c4cccc(Cl)c4)C(F)(F)F)CC3)CC2)nc1Cl"
value = 66


[P] CN(C)C(=O)c1ccc(N2CCC(CC3CCN(C(=O)[C@](O)(c4ccccc4F)C(F)(F)F)CC3)CC2)cc1Cl
[Q] CNC(=O)c1ccc(N2CCC(OC3CCN(C(=O)[C@](O)(c4ccccc4)C(F)(F)F)CC3)CC2)cc1Cl
q: I need your help: which of the pair P , Q has higher Emax? Label of pick, please.
a: Q

====

molecular target: glutathione-S-transferase (GST) tagged LXRalpha LBD (ligand binding domain) (Homo sapiens, UniProt Q13133); construct: purchased Invitrogen pv4655; experiment: LanthaScreen TR-FRET Liver X Receptor Coactivator Assay, co-activator recruitment to LXRalpha LBD; assay type: biochemical; settings: potency (Inflection Point, IP), co-activator recruitment to LXRalpha LBD, in relation to T0901317; read-out: LXR alpha IP
Sequence (Q13133 209-447 limits assumed): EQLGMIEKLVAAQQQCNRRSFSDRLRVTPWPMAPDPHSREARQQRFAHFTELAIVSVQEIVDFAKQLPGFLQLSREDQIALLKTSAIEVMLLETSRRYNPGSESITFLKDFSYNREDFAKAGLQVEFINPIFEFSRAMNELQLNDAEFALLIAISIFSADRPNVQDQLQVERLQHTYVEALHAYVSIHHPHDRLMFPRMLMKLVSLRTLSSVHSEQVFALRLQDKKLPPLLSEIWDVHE
pEC50: −log10 of the molar value.
assay-readout: pEC50

Completed entries (count: 8):
[[record]]
molecule = "CNC(=O)c1ccc(N2CCC(CC3CCN(C(=O)[C@](O)(c4cccc(OC)c4)C(F)(F)C(F)(F)F)CC3)CC2)nc1Cl"
value = 6.37

[[record]]
molecule = "CN(C)C(=O)c1ncc(N2CCC(CC3CCN(C(=O)[C@](O)(c4ccccc4)C(F)(F)F)CC3)CC2)cc1Cl"
value = 6.34

[[record]]
molecule = "CN(C)C(=O)c1ccc(N2CCC(OC3CCN(C(=O)[C@](O)(c4ccccc4)C(F)(F)F)CC3)CC2)cc1Cl"
value = 5.96

[[record]]
molecule = "CCc1cccc([C@@](O)(C(=O)N2CCC(CC3CCN(c4ccc(C(=O)NC)c(Cl)n4)CC3)CC2)C(F)(F)F)c1"
value = 6.92

[[record]]
molecule = "CN(C)C(=O)c1ccc(N2CCC(CC3CCN(C(=O)[C@](O)(c4cccc(Br)c4)C(F)(F)F)CC3)CC2)cc1"
value = 6.38

[[record]]
molecule = "CN(C)C(=O)c1ccc(N2CCC(CC3CCN(C(=O)[C@](O)(c4cccc(F)c4)C(F)(F)F)CC3)CC2)nc1Cl"
value = 7.06

[[record]]
molecule = "CNC(=O)c1ccc(N2CCC(CC3CCN(C(=O)[C@](O)(c4cccc(Cl)c4)C(F)(F)F)CC3)CC2)nc1Cl"
value = 7.29

[[record]]
molecule = "CNC(=O)c1ccc(N2CCC(OC3CCN(C(=O)C(O)(c4cccc(C(F)(F)F)c4)C(F)(F)F)CC3)CC2)cc1Cl (stereo not shown)"
value = 5.70


[1] CN(C)C(=O)c1ccc(N2CCC(CC3CCN(C(=O)C(N)(c4ccccc4)C(F)(F)F)CC3)CC2)nc1Cl (stereo not shown)
[2] CN(C)C(=O)c1ccc(N2CCC(CC3CN(C(=O)C(O)(c4cccc(Cl)c4)C(F)(F)F)C3)CC2)cc1Cl (stereo not shown)
q: Which entry has a larger number for pEC50, 1 or 2 ? Pick one; state its label.
a: 2
(2: 6.16, 1: 5.77)

====

target: glutathione-S-transferase (GST) tagged LXRbeta LBD (ligand binding domain) (Homo sapiens); construct: purchased Invitrogen pv4658.pps; assay: LanthaScreen TR-FRET Liver X Receptor Coactivator Assay, co-activator recruitment to LXRbeta LBD; assay type: biochemical; details: efficacy at max dose, in relation to reference dual agonist T0901317; read-out: LXR beta Activity @ max dose (%)
assay-readout: Emax (%)

[[record]]
compound = "CCOc1cccc([C@@](O)(C(=O)N2CCC(CC3(C)CCN(c4ccc(C(=O)N(C)C)c(OC)n4)CC3)CC2)C(F)(F)F)c1"
assay_readout = "Emax"
value = 106

[[record]]
compound = "Cc1cc(N2CCC(CC3(C)CCN(C(=O)[C@](O)(c4cccc(OC(C)C)c4)C(F)(F)F)CC3)CC2)ccc1C(=O)N(C)C"
assay_readout = "Emax"
value = 44

[[record]]
compound = "CC(C)c1cccc([C@@](O)(C(=O)N2CCC(CC3CCN(c4ccc(C(=O)N(C)C)c(Cl)c4)CC3)CC2)C(F)(F)F)c1"
assay_readout = "Emax"
value = 50

[[record]]
compound = "CN(C)C(=O)c1ccc(N2CCC(CC3CCN(C(=O)[C@@](O)(c4cccc(F)c4)C(F)(F)F)CC3)CC2)nc1Cl"
assay_readout = "Emax"
value = 128

[[record]]
compound = "COc1cccc(C(O)(C(=O)N2CCC(CC3CCN(c4ccc(C(=O)N(C)C)c(Cl)c4)CC3)CC2)C(F)(F)F)c1F (stereo not shown)"
assay_readout = "Emax"
value = 63


[P] COc1cccc([C@@](O)(C(=O)N2CCC(CC3CN(c4ccc(C(=O)N(C)C)c(C)n4)C3)CC2)C(F)(F)F)c1
[Q] CNC(=O)c1ccc(N2CCC(CC3CCN(C(=O)[C@@](O)(c4ccccc4)C(F)(F)F)CC3)CC2)nc1Cl
q: Compare Emax: is it lower for P or for Q ? Your choice should be expressed through its label.
a: P

[I] COc1cccc([C@@](O)(C(=O)N2CCC(CC3CCN(c4ccc(C(=O)N(C)C)c(Cl)c4)CC3)CC2)C(F)(F)F)c1 (single isomer, unassigned) [Example 2-34]
[II] CNC(=O)c1ccc(N2CCC(CC3CCN(C(=O)[C@](O)(c4cccc(Cl)c4)C(F)(F)F)CC3)CC2)nc1Cl
[III] CCc1cccc(C(O)(C(=O)N2CCC(CC3CCN(c4ccc(C(=O)N(C)C)c(Cl)n4)CC3)CC2)C(F)(F)F)c1 (stereo not shown)
[IV] COc1cccc([C@@](N)(C(=O)N2CCC(CC3CCN(c4ccc(C(=O)N(C)C)c(Cl)n4)CC3)CC2)C(F)(F)F)c1
q: Ordering: ascending Emax. Answer by listing the labels in the requested order.
a: IV, III, I, II
(IV: 21%, III: 41%, I: 69%, II: 100%)

====

molecular target: glutathione-S-transferase (GST) tagged LXRbeta LBD (ligand binding domain) (Homo sapiens, UniProt P55055); construct: purchased Invitrogen pv4658.pps; test: LanthaScreen TR-FRET Liver X Receptor Coactivator Assay, co-activator recruitment to LXRbeta LBD; assay type: biochemical; settings: potency (Inflection Point, IP), co-activator recruitment to LXRbeta LBD, in relation to T0901317; read-out: LXR beta IP
assay-readout: EC50 (nM)

[[record]]
compound = "CC(C)c1cccc([C@@](O)(C(=O)N2CCC(C)(CC3CCN(c4ccc(C(=O)N(C)C)c(Cl)c4)CC3)CC2)C(F)(F)F)c1"
assay_readout = "EC50"
value = 18

[[record]]
compound = "CC(C)Oc1cccc(C(O)(C(=O)N2CCC(CC3CCN(c4ccc(C(=O)N(C)C)c(Cl)n4)CC3)CC2)C(F)(F)F)c1 (stereo not drawn)"
assay_readout = "EC50"
value = 10

[[record]]
compound = "CN(C)C(=O)c1ccc(N2CCC(CC3CCN(C(=O)[C@](O)(c4cccc(Cl)c4)C(F)(F)F)CC3)CC2)cc1 [Example 2-146]"
assay_readout = "EC50"
value = 33

[[record]]
compound = "CN(C)C(=O)c1ccc(N2CCC(CC3CCN(C(=O)[C@](O)(c4cccc(OC(F)(F)F)c4)C(F)(F)F)CC3)CC2)cc1"
assay_readout = "EC50"
value = 78

[[record]]
compound = "CNC(=O)c1ccc(N2CCC(CC3CCN(C(=O)[C@](O)(c4cccc(Br)c4)C(F)(F)F)CC3)CC2)nc1Cl"
assay_readout = "EC50"
value = 9


[I] CCOc1cccc([C@@](O)(C(=O)N2CCC(CC3CCN(c4ccc(C(=O)N(C)C)c(Cl)c4)CC3)CC2)C(F)F)c1
[II] O=C(c1ccc(N2CCC(CC3CCN(C(=O)[C@](O)(c4cc(Cl)cc(Cl)c4)C(F)(F)F)CC3)CC2)cc1Cl)N1CCC[C@@H]1CO
q: Param pair: I , II . Output: the one whose EC50 is numerically greater. API: response body contains the label of the selected item.
a: II
(II: 51 nM, I: 33 nM)

[a] CN(C)C(=O)c1ccc(N2CCC(CC3CCN(C(=O)[C@@](O)(c4cccc(Br)c4)C(F)(F)F)CC3)CC2)nc1Cl
[b] COc1nc(N2CCC(CC3CCN(C(=O)[C@](O)(c4cc(Cl)cc(Cl)c4)C(F)(F)F)CC3)CC2)ccc1C(=O)N(C)C
q: In the pair a and b , the larger recorded EC50 belongs to which? Kindly state the label of the option you pick.
a: a
(a: 64 nM, b: 6 nM)
